- Test system: NCI-H2122
- TEST_PROTOCOL: relative IC50 of cell viability (CellTiter-Glo); higher = less potent
READOUT_LABEL: relative IC50 of cell viability (nM)
Report the figure in nM without appending any unit label.

1) O=C(/C=C/c1cccc(S(=O)(=O)Nc2ccccc2)c1)NO [Belinostat] (top concentration tested 10000 nM)
274
2) CN(C)C/C=C/C(=O)Nc1cc2c(Nc3ccc(F)c(Cl)c3)ncnc2cc1O[C@H]1CCOC1 [Afatinib] (top concentration tested 10000 nM)
1220
3) Nc1ncn([C@H]2C[C@H](O)[C@@H](CO)O2)c(=O)n1 [Decitabine] (top concentration tested 10000 nM)
1360
4) CN[C@H]1CN(c2ccc3c(=O)c(C(=O)O)cn(-c4nccs4)c3n2)C[C@@H]1OC [Vosaroxin] (top concentration tested 2500 nM)
778
5) C[C@@H](Oc1cc(-c2cnn(C3CCNCC3)c2)cnc1N)c1c(Cl)ccc(F)c1Cl (top concentration tested 10000 nM)
1230

Then this compound:
Input: relative IC50 of cell viability for COc1ncc(-c2ccc3nccc(-c4ccnnc4)c3c2)cc1NS(=O)(=O)c1ccc(F)cc1F (top concentration tested 50000 nM) ?
Output: 43.6

---

- Tested on: NCI-H2122
- TEST_PROTOCOL: combination cScore with adagrasib (Bliss gap around IC50) (%PoC); higher = stronger additive effect
Rule: 1 for combination cScore with adagrasib not less than 5, 0 for anything less.

1. C=CC(=O)Nc1cc(Nc2nccc(-c3cn(C)c4ccccc34)n2)c(OC)cc1N(C)CCN(C)C [Osimertinib] + C=C(F)C(=O)N1CCN(c2nc(OC[C@@H]3CCCN3C)nc3c2CCN(c2cccc4cccc(Cl)c24)C3)C[C@@H]1CC#N
1
2. O=C(O)C1(C(=O)O)CCC1.[NH2-].[NH2-].[Pt+2] [Carboplatin] + C=C(F)C(=O)N1CCN(c2nc(OC[C@@H]3CCCN3C)nc3c2CCN(c2cccc4cccc(Cl)c24)C3)C[C@@H]1CC#N
0
3. CCN(CCCOc1ccc2c(Nc3cc(CC(=O)Nc4cccc(F)c4)[nH]n3)ncnc2c1)CCOP(=O)(O)O [AZD-1152] + C=C(F)C(=O)N1CCN(c2nc(OC[C@@H]3CCCN3C)nc3c2CCN(c2cccc4cccc(Cl)c24)C3)C[C@@H]1CC#N
1

Input: Check this compound for combination cScore with adagrasib at or above 5: CCc1cccc(CC)c1NC(=O)c1nn(C)c2c1CCc1cnc(Nc3ccc(C(=O)NC4CCN(C)CC4)cc3OC(F)(F)F)nc1-2 [NMS-P715] + C=C(F)C(=O)N1CCN(c2nc(OC[C@@H]3CCCN3C)nc3c2CCN(c2cccc4cccc(Cl)c24)C3)C[C@@H]1CC#N
Output: 0

Input: Check this compound for combination cScore with adagrasib at or above 5: On1ncc2cc(CCc3nn[nH]n3)ccc21 + C=C(F)C(=O)N1CCN(c2nc(OC[C@@H]3CCCN3C)nc3c2CCN(c2cccc4cccc(Cl)c24)C3)C[C@@H]1CC#N
Output: 1

---

- Tested on: NCI-H2122
- TEST_PROTOCOL: combination cScore with sotorasib (Bliss gap around IC50) (%PoC); higher = stronger additive effect
READOUT_LABEL: combination cScore with sotorasib

1. N.N.[Cl][Pt][Cl] [Cisplatin] + C=CC(=O)N1CCN(c2nc(=O)n(-c3c(C)ccnc3C(C)C)c3nc(-c4c(O)cccc4F)c(F)cc23)[C@@H](C)C1
4.22

Input: Provide value of combination cScore with sotorasib for this record tested with NCI-H2122: NC(=O)c1ccc(-c2nc(-c3ccccn3)c(-c3ccc4c(c3)OCO4)[nH]2)cc1 + C=CC(=O)N1CCN(c2nc(=O)n(-c3c(C)ccnc3C(C)C)c3nc(-c4c(O)cccc4F)c(F)cc23)[C@@H](C)C1
Output: 3.33

Input: Provide value of combination cScore with sotorasib for this record tested with NCI-H2122: Cc1ccc(NC(=O)c2ccc(CN3CCN(C)CC3)cc2)cc1Nc1nc(-c2cccnc2)cs1 [Masitinib] + C=CC(=O)N1CCN(c2nc(=O)n(-c3c(C)ccnc3C(C)C)c3nc(-c4c(O)cccc4F)c(F)cc23)[C@@H](C)C1
Output: 17.9

---

- Test system: NCI-H2122
- TEST_PROTOCOL: combination cScore with sotorasib (Bliss gap around IC50) (%PoC); higher = stronger additive effect
READOUT_LABEL: combination cScore with sotorasib
Reply briefly: the number, and no unit.

Below, 3 compounds whose answers are already recorded.
1. C=C(c1ccc(C(=O)O)cc1)c1cc2c(cc1C)C(C)(C)CCC2(C)C [Bexarotene] + C=CC(=O)N1CCN(c2nc(=O)n(-c3c(C)ccnc3C(C)C)c3nc(-c4c(O)cccc4F)c(F)cc23)[C@@H](C)C1
14.2
2. Cc1ccc(NC(=O)c2ccnc(C(F)(F)F)c2)cc1-c1cc(OCCO)nc(N2CCOCC2)c1 [LXH-254] + C=CC(=O)N1CCN(c2nc(=O)n(-c3c(C)ccnc3C(C)C)c3nc(-c4c(O)cccc4F)c(F)cc23)[C@@H](C)C1
7.11
3. N#CN=C(NCCCCCCOc1ccc(Cl)cc1)Nc1ccncc1 [GMX1778] + C=CC(=O)N1CCN(c2nc(=O)n(-c3c(C)ccnc3C(C)C)c3nc(-c4c(O)cccc4F)c(F)cc23)[C@@H](C)C1
-13.8

Input: Provide value of combination cScore with sotorasib for this record tested with NCI-H2122: CS(=O)(=O)c1ccc(C(=O)Nc2ccc(Cl)c(-c3ccccn3)c2)c(Cl)c1 [Vismodegib] + C=CC(=O)N1CCN(c2nc(=O)n(-c3c(C)ccnc3C(C)C)c3nc(-c4c(O)cccc4F)c(F)cc23)[C@@H](C)C1
Output: 12.1

---

- System: SW837
- TEST_PROTOCOL: combination cScore with adagrasib (Bliss gap around IC50) (%PoC); higher = stronger additive effect
READOUT_LABEL: combination cScore with adagrasib

Below, 3 compounds whose answers are already recorded.
1) COc1cc([C@@H]2c3cc4c(cc3[C@@H](O[C@@H]3O[C@@H]5CO[C@@H](C)O[C@H]5[C@H](O)[C@H]3O)[C@H]3COC(=O)[C@H]23)OCO4)cc(OC)c1O [Etoposide] + C=C(F)C(=O)N1CCN(c2nc(OC[C@@H]3CCCN3C)nc3c2CCN(c2cccc4cccc(Cl)c24)C3)C[C@@H]1CC#N
-0.11
2) Cc1cc(Nc2nc(N[C@@H](C)c3ncc(F)cn3)ncc2Cl)[nH]n1 [AZD-1480] + C=C(F)C(=O)N1CCN(c2nc(OC[C@@H]3CCCN3C)nc3c2CCN(c2cccc4cccc(Cl)c24)C3)C[C@@H]1CC#N
1.14
3) Nc1cccc2c1CN(C1CCC(=O)NC1=O)C2=O (stereo not drawn) [Lenalidomide] + C=C(F)C(=O)N1CCN(c2nc(OC[C@@H]3CCCN3C)nc3c2CCN(c2cccc4cccc(Cl)c24)C3)C[C@@H]1CC#N
-3.14

Input: combination cScore with adagrasib for COc1cc(CCc2cc(NC(=O)c3ccc(N4CC(C)NC(C)C4)cc3)n[nH]2)cc(OC)c1 (stereo not drawn) [AZD4547] + C=C(F)C(=O)N1CCN(c2nc(OC[C@@H]3CCCN3C)nc3c2CCN(c2cccc4cccc(Cl)c24)C3)C[C@@H]1CC#N ?
Output: 5.13

Input: combination cScore with adagrasib for Cc1cn(CCN2CCN(c3ccccc3-c3cc(C#N)cc(C(=O)NCCCN4CCCC4)c3)CC2)c2ccccc12 [LLY-507] + C=C(F)C(=O)N1CCN(c2nc(OC[C@@H]3CCCN3C)nc3c2CCN(c2cccc4cccc(Cl)c24)C3)C[C@@H]1CC#N ?
Output: 20.3

Input: combination cScore with adagrasib for Nc1nc(F)nc2c1ncn2[C@@H]1O[C@H](CO)[C@@H](O)[C@@H]1O [Fludarabine] + C=C(F)C(=O)N1CCN(c2nc(OC[C@@H]3CCCN3C)nc3c2CCN(c2cccc4cccc(Cl)c24)C3)C[C@@H]1CC#N ?
Output: 2.57

Input: combination cScore with adagrasib for COc1cc2ncnc(Nc3ccc(F)c(Cl)c3)c2cc1OCCCN1CCOCC1 [Gefitinib] + C=C(F)C(=O)N1CCN(c2nc(OC[C@@H]3CCCN3C)nc3c2CCN(c2cccc4cccc(Cl)c24)C3)C[C@@H]1CC#N ?
Output: 23.8

Input: combination cScore with adagrasib for Cc1nc(-c2cn3c(n2)-c2ccc(-c4cnn(C(C)(C)C(N)=O)c4)cc2OCC3)n(C(C)C)n1 [Taselisib] + C=C(F)C(=O)N1CCN(c2nc(OC[C@@H]3CCCN3C)nc3c2CCN(c2cccc4cccc(Cl)c24)C3)C[C@@H]1CC#N ?
Output: 26.6

---

- Test system: NCI-H2122
- TEST_PROTOCOL: combination cScore with sotorasib (Bliss gap around IC50) (%PoC); higher = stronger additive effect
Structures can show the parent of a compound that is named as a salt.
Documented combination cScore with sotorasib across a set of compounds
Reply briefly: the number, and no unit.

1. CO[C@@]12[C@H](COC(N)=O)C3=C(C(=O)C(C)=C(N)C3=O)N1C[C@@H]1N[C@@H]12 [Mitomycin C] + C=CC(=O)N1CCN(c2nc(=O)n(-c3c(C)ccnc3C(C)C)c3nc(-c4c(O)cccc4F)c(F)cc23)[C@@H](C)C1 [sotorasib]
11
2. CCN1CCN(Cc2ccc(Nc3ncc(F)c(-c4cc(F)c5nc(C)n(C(C)C)c5c4)n3)nc2)CC1 [Abemaciclib] + C=CC(=O)N1CCN(c2nc(=O)n(-c3c(C)ccnc3C(C)C)c3nc(-c4c(O)cccc4F)c(F)cc23)[C@@H](C)C1 [sotorasib]
9.29
3. CC(C)(C)c1nc(-c2cccc(NS(=O)(=O)c3c(F)cccc3F)c2F)c(-c2ccnc(N)n2)s1 [Dabrafenib] + C=CC(=O)N1CCN(c2nc(=O)n(-c3c(C)ccnc3C(C)C)c3nc(-c4c(O)cccc4F)c(F)cc23)[C@@H](C)C1 [sotorasib]
13.3
4. CCc1c2c(nc3ccc(O)cc13)-c1cc3c(c(=O)n1C2)COC(=O)[C@]3(O)CC [SN-38] + C=CC(=O)N1CCN(c2nc(=O)n(-c3c(C)ccnc3C(C)C)c3nc(-c4c(O)cccc4F)c(F)cc23)[C@@H](C)C1 [sotorasib]
11.8
5. CCCc1cc(C)[nH]c(=O)c1CNC(=O)c1cc(-c2ccnc(N3CCN(C)CC3)c2)cc2c1cnn2C(C)C [GSK343] + C=CC(=O)N1CCN(c2nc(=O)n(-c3c(C)ccnc3C(C)C)c3nc(-c4c(O)cccc4F)c(F)cc23)[C@@H](C)C1 [sotorasib]
8.7
6. C[C@@H]1CCN(C(=O)CC#N)C[C@@H]1N(C)c1ncnc2[nH]ccc12 [Tofacitinib citrate] + C=CC(=O)N1CCN(c2nc(=O)n(-c3c(C)ccnc3C(C)C)c3nc(-c4c(O)cccc4F)c(F)cc23)[C@@H](C)C1 [sotorasib]
1.35
7. CO[C@H]1CC[C@H](n2c([C@@H]3CCCC(=O)N3c3ccc(F)c(F)c3)nc3cc(-c4c(C)noc4C)ccc32)CC1 [CCS1477] + C=CC(=O)N1CCN(c2nc(=O)n(-c3c(C)ccnc3C(C)C)c3nc(-c4c(O)cccc4F)c(F)cc23)[C@@H](C)C1 [sotorasib]
13.8
8. CC[C@H](C)C(=O)O[C@H]1C[C@@H](C)C=C2C=C[C@H](C)[C@H](CC[C@@H]3C[C@@H](O)CC(=O)O3)[C@H]21 [Lovastatin] + C=CC(=O)N1CCN(c2nc(=O)n(-c3c(C)ccnc3C(C)C)c3nc(-c4c(O)cccc4F)c(F)cc23)[C@@H](C)C1 [sotorasib]
-1.83

Input: Provide value of combination cScore with sotorasib for this record tested with NCI-H2122: NC1(c2ccc(-c3nc4ccn5c(=O)[nH]nc5c4cc3-c3ccccc3)cc2)CCC1 [MK-2206] + C=CC(=O)N1CCN(c2nc(=O)n(-c3c(C)ccnc3C(C)C)c3nc(-c4c(O)cccc4F)c(F)cc23)[C@@H](C)C1 [sotorasib]
Output: 15.5

Input: Provide value of combination cScore with sotorasib for this record tested with NCI-H2122: CCN1CCN(c2ccc(Nc3cc(N(C)C(=O)Nc4c(Cl)c(OC)cc(OC)c4Cl)ncn3)cc2)CC1 [BGJ398] + C=CC(=O)N1CCN(c2nc(=O)n(-c3c(C)ccnc3C(C)C)c3nc(-c4c(O)cccc4F)c(F)cc23)[C@@H](C)C1 [sotorasib]
Output: 2.52
